FYI, the data here is from ChEMBL document CHEMBL1132135.

Subject of test: Mitogen-activated protein kinase 14 (Homo sapiens)
Sequence (Q16539 whole entry): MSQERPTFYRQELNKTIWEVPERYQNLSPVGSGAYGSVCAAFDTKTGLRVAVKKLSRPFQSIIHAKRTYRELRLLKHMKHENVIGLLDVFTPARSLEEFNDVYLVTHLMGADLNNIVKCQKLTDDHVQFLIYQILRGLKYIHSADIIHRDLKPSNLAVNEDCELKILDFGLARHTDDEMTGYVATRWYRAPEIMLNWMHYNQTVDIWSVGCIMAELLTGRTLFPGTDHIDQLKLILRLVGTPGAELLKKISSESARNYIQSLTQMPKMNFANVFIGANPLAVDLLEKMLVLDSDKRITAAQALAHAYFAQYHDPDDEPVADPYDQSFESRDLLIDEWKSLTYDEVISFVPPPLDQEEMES
Assay comment: Inhibitory activity against p38-alpha kinase
Observation type: IC50 (nM)

Line notation | Subject of test | Observation type | Quantitative readout
Clc1ccc(-c2cc(-c3ccc(Cl)cc3)c(-c3ccncc3)[nH]2)cc1 | Mitogen-activated protein kinase 14 (Homo sapiens) | IC50 | 160
Clc1ccc(-c2cc(-c3ccc(Br)cc3)c(-c3ccncc3)[nH]2)cc1 | Mitogen-activated protein kinase 14 (Homo sapiens) | IC50 | 300
C=CCOc1ccccc1-c1cc(-c2ccc(Cl)cc2)[nH]c1-c1ccncc1 | Mitogen-activated protein kinase 14 (Homo sapiens) | IC50 | 4740
CCCOc1ccccc1-c1cc(-c2ccc(Cl)cc2)[nH]c1-c1ccncc1 | Mitogen-activated protein kinase 14 (Homo sapiens) | IC50 | 2840
Cc1cc(-c2ccc(F)cc2)c(-c2ccncc2)[nH]1 | Mitogen-activated protein kinase 14 (Homo sapiens) | IC50 | 320
CCCOc1ccc(Br)cc1-c1cc(-c2ccc(Cl)cc2)[nH]c1-c1ccncc1 | Mitogen-activated protein kinase 14 (Homo sapiens) | IC50 | 1440
Fc1ccc(-c2cc(C3CCCCC3)[nH]c2-c2ccncc2)cc1 | Mitogen-activated protein kinase 14 (Homo sapiens) | IC50 | 180
Fc1ccc(-c2cc(-c3cccc(Cl)c3)[nH]c2-c2ccncc2)cc1 | Mitogen-activated protein kinase 14 (Homo sapiens) | IC50 | 420
O=[N+]([O-])c1ccc(-c2cc(-c3ccc(F)cc3)c(-c3ccncc3)[nH]2)cc1 | Mitogen-activated protein kinase 14 (Homo sapiens) | IC50 | 50
Clc1ccc(-c2cc(-c3ccccc3Br)c(-c3ccncc3)[nH]2)cc1 | Mitogen-activated protein kinase 14 (Homo sapiens) | IC50 | 1000

###

Subject of test: UniProt P47871
Assay comment: Binding affinity towards glucagon receptor determined by reduction in binding of [125I]glucagon to the human glucagon receptor (GGR) expressed on CHO cells in presence of Mg+2
Format: cell-based
IC50 listing for selected molecules.
Observation type: IC50

Line notation | Result
CCCOc1ccc(Cl)cc1-c1cc(-c2ccc(Cl)cc2)[nH]c1-c1ccncc1 | 170 nM
Clc1ccc(-c2cc(C3CCCCC3)c(-c3ccncc3)[nH]2)cc1 | > 3000 nM
Clc1ccc(-c2cc(-c3ccc(Cl)cc3)c(-c3ccncc3)[nH]2)cc1 | 810 nM
C=CCOc1ccccc1-c1cc(-c2ccc(Cl)cc2)[nH]c1-c1ccncc1 | 260 nM
CC(C)Oc1ccccc1-c1cc(-c2ccc(Cl)cc2)[nH]c1-c1ccncc1 | 910 nM
Clc1ccc(-c2ccc(-c3ccncc3)[nH]2)cc1 | > 3000 nM
Fc1ccc(-c2cc(C3CCCCC3)[nH]c2-c2ccncc2)cc1 | 490 nM
Clc1ccc(-c2cc(-c3ccccc3Br)c(-c3ccncc3)[nH]2)cc1 | 2300 nM
Clc1ccc(-c2cc(-c3ccc(Br)cc3)c(-c3ccncc3)[nH]2)cc1 | 2300 nM
CCCOc1cccc(OCCC)c1-c1cc(-c2ccc(Cl)cc2)[nH]c1-c1ccncc1 | 290 nM

###

Subject of test: Glucagon receptor (Mus musculus) (UniProt Q61606)
Sequence (Q61606 whole entry): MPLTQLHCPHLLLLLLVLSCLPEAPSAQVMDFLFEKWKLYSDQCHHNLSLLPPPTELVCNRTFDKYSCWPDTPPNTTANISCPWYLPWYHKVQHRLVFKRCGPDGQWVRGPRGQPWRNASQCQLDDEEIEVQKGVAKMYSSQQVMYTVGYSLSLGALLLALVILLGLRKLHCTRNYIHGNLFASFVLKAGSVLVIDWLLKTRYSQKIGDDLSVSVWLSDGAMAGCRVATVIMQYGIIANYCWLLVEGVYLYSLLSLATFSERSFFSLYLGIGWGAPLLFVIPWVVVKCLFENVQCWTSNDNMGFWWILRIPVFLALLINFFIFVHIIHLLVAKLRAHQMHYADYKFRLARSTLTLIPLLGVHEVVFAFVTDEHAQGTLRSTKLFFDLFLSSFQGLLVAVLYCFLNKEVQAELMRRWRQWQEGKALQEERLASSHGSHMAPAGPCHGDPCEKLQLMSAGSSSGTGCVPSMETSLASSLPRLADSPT
Assay comment: Binding affinity towards glucagon receptor determined by reduction in binding of 125 I-glucagon to the murine glucagon receptor (mGLUR) expressed on CHO cells in presence of Mg+2 at 1 uM
Format: cell-based
Please note: criterion met applies when inhibition is 20% or greater, and criterion not met applies otherwise.

Line notation | Class name
COc1ccc(-c2cc(-c3ccc(Cl)cc3)[nH]c2-c2ccncc2)cc1 | criterion not met
O=C(OCc1ccccc1)c1cc(-c2ccc(Cl)cc2)[nH]c1-c1ccncc1 | criterion not met
Fc1ccc(-c2cc(-c3cccc(Cl)c3)[nH]c2-c2ccncc2)cc1 | criterion met
CCCCCCOc1ccccc1-c1cc(-c2ccc(Cl)cc2)[nH]c1-c1ccncc1 | criterion met
Fc1ccc(-c2cc(-c3ccc(Cl)cc3Cl)[nH]c2-c2ccncc2)cc1 | criterion not met
Fc1ccc(-c2cc(-c3ccc(Cl)cc3)[nH]c2-c2ccncc2)cc1 | criterion met
Clc1ccc(-c2cc(-c3cccc(Br)c3)c(-c3ccncc3)[nH]2)cc1 | criterion met

###

Subject of test: Glucagon receptor (Mus musculus, UniProt Q61606)
Assay comment: Binding affinity towards glucagon receptor determined by reduction in binding of 125 I-glucagon to the murine glucagon receptor (mGLUR) expressed on CHO cells in absence of Mg
Type: cell-based

Line notation | Subject of test | IC50
Clc1ccc(-c2cc(-c3cccc(Br)c3)c(-c3ccncc3)[nH]2)cc1 | Glucagon receptor (Mus musculus, UniProt Q61606) | 230 nM

###

Assay comment: Concentration in plasma (systemic) following oral dose in mouse at 4 hr
Assay type: ADME, organism-based
Observation type: concentration at 4 h (µM)

Line notation | Quantitative readout
CCCOc1ccc(Br)cc1-c1cc(-c2ccc(Cl)cc2)[nH]c1-c1ccncc1 | 16.5

###

Assay comment: Selectivity ratio between the binding value of human glucagon receptor (GGR) with Mg+2 and the value of p38 kinase
Ratio listing for selected compounds.

Line notation | Result operator | Ratio
CN1CCC(c2cc(-c3ccc(F)cc3)c(-c3ccncc3)[nH]2)CC1 | > | 130
Cc1cc(-c2ccc(F)cc2)c(-c2ccncc2)[nH]1 | > | 9
Clc1ccc(-c2cc(-c3ccc(Br)cc3)c(-c3ccncc3)[nH]2)cc1 | = | 7.6
COc1cccc(-c2cc(-c3ccc(Cl)cc3)[nH]c2-c2ccncc2)c1 | = | 1.1
Fc1ccc(-c2cc(-c3ccc(Cl)cc3)[nH]c2-c2ccncc2)cc1 | = | 0.57
Fc1ccc(-c2cc(C3CCCCC3)[nH]c2-c2ccncc2)cc1 | = | 2.7

###

Subject of test: Glucagon receptor (Homo sapiens, UniProt P47871)
Sequence (P47871 whole entry): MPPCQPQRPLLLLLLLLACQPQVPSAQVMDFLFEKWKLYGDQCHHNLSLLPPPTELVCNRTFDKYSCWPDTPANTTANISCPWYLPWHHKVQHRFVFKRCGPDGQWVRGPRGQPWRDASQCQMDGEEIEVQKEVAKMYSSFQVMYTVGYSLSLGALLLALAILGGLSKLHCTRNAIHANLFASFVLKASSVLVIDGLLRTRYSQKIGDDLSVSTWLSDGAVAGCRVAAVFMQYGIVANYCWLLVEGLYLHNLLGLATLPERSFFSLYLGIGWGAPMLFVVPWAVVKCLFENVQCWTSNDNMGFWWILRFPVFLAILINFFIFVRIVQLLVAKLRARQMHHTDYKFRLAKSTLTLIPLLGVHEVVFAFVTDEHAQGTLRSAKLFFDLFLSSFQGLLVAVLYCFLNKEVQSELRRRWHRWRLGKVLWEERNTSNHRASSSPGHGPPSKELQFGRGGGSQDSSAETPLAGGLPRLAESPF
Assay comment: biochemical
Format: cell-based, CHO
Description: Binding affinity determined by reduction in binding of 125 I-glucagon to the human glucagon receptor expressed on CHO cells in absence of Mg+2
pIC50: −log10 of the molar value.
pIC50 listing for selected molecules.
Observation type: pIC50

Line notation | Subject of test | Observation type | Result operator | Quantitative readout
Fc1ccc(-c2cc(C3CCCCC3)[nH]c2-c2ccncc2)cc1 | Glucagon receptor (Homo sapiens, UniProt P47871) | pIC50 | = | 7.05
O=[N+]([O-])c1ccc(-c2cc(-c3ccc(F)cc3)c(-c3ccncc3)[nH]2)cc1 | Glucagon receptor (Homo sapiens, UniProt P47871) | pIC50 | = | 6.44
Fc1ccc(-c2cc(-c3ccccc3)[nH]c2-c2ccncc2)cc1 | Glucagon receptor (Homo sapiens, UniProt P47871) | pIC50 | = | 6.41
O=C(O)c1cc(-c2ccc(Cl)cc2)[nH]c1-c1ccncc1 | Glucagon receptor (Homo sapiens, UniProt P47871) | pIC50 | < | 5.52
Fc1ccc(-c2cc[nH]c2-c2ccncc2)cc1 | Glucagon receptor (Homo sapiens, UniProt P47871) | pIC50 | < | 5.52
COc1ccc(-c2cc(-c3ccc(Cl)cc3)[nH]c2-c2ccncc2)cc1 | Glucagon receptor (Homo sapiens, UniProt P47871) | pIC50 | = | 7.00
CCCCOc1ccccc1-c1cc(-c2ccc(Cl)cc2)[nH]c1-c1ccncc1 | Glucagon receptor (Homo sapiens, UniProt P47871) | pIC50 | = | 8.00
COc1cccc(-c2cc(-c3ccc(Cl)cc3)[nH]c2-c2ccncc2)c1 | Glucagon receptor (Homo sapiens, UniProt P47871) | pIC50 | = | 7.22
Fc1ccc(-c2cc(-c3ccc(F)cc3)c(-c3ccncc3)[nH]2)cc1 | Glucagon receptor (Homo sapiens, UniProt P47871) | pIC50 | = | 7.05
CSc1ccc(-c2cc(-c3ccc(F)cc3)c(-c3ccncc3)[nH]2)cc1 | Glucagon receptor (Homo sapiens, UniProt P47871) | pIC50 | = | 6.54
CC(C)c1cc(-c2ccc(Cl)cc2)[nH]c1-c1ccncc1 | Glucagon receptor (Homo sapiens, UniProt P47871) | pIC50 | = | 7.49

###

Assay comment: Selectivity ratio between the binding value of human glucagon receptor (GGR) with Mg+2 and the value of p38 kinase
Please note: Met applies when Ratio is 0.05 or greater, and Not met applies otherwise.

Line notation | Class name
Fc1ccc(-c2cc(-c3ccc(Cl)cc3Cl)[nH]c2-c2ccncc2)cc1 | Met
COc1ccc(-c2cc(-c3ccc(Cl)cc3)[nH]c2-c2ccncc2)cc1 | Met
CCCCCCOc1ccccc1-c1cc(-c2ccc(Cl)cc2)[nH]c1-c1ccncc1 | Met
CCOc1ccccc1-c1cc(-c2ccc(Cl)cc2)[nH]c1-c1ccncc1 | Not met

###

Subject of test: Mitogen-activated protein kinase 14 (Homo sapiens)
Assay comment: Inhibitory activity against p38-alpha kinase
IC50 listing for selected compounds.

Line notation | Subject of test | IC50
CC(C)c1cc(-c2ccc(Cl)cc2)[nH]c1-c1ccncc1 | Mitogen-activated protein kinase 14 (Homo sapiens) | > 10 µM
CCOC(=O)c1cc(-c2ccc(Cl)cc2)[nH]c1-c1ccncc1 | Mitogen-activated protein kinase 14 (Homo sapiens) | > 1 µM
CC(C)(C)c1ccc(-c2cc(-c3ccc(F)cc3)c(-c3ccncc3)[nH]2)cc1 | Mitogen-activated protein kinase 14 (Homo sapiens) | > 10 µM
O=C(O)c1cc(-c2ccc(Cl)cc2)[nH]c1-c1ccncc1 | Mitogen-activated protein kinase 14 (Homo sapiens) | > 1 µM
